system: OVCAR-5 ovarian; assay: NCI-60 one-dose screen, 48 h; conditions: 10 µM unless noted
This is part of a sample that, as a whole, favours compounds with a hit. Of some 83,000 tested, about 20% had one in any assay. The source made the active and inactive calls. How the source made its calls: active means growth percent below 10; inactive means the rest.
Parameter call: string, one of active, inactive

Look over these answered cases.
Q: For this compound, state the assay outcome: `COc1ccc(/C=C/C(=O)c2ccc(Nc3ccnc4cc(Cl)ccc34)cc2)cc1`
A: inactive

Q: Which outcome was assigned to `NC(=O)CSc1oc(-c2ccccc2)nc1S(=O)(=O)c1ccc(Br)cc1` in this test?
A: inactive

Q: Test call for this compound, please: `O=C(Nc1ccc(Oc2cccc(Cl)c2)c(Cl)c1)c1cccnc1`
A: inactive

Q: Hey, what did the test say about `CCOC(=O)C#Cc1c(C(=O)OCC)nnn1Cc1ccc([N+](=O)[O-])cc1` ?
A: inactive

Continuing:
Q: Per the assay record, what outcome was assigned to `COc1ccc(OC)c(/C=N/Nc2ncnc3c2c(C)nn3C)c1` ?
A: inactive

---

system: SW-620 colon; test: NCI-60 one-dose screen, 48 h; conditions: 10 µM unless noted
Compounds without any hit were thinned out: in the full panel of roughly 83,000, 20% have a hit. Calls of active or inactive are those of the source. Rule for the calls: active = growth percent below 10; inactive = the rest.
Classes to choose from: 1 = active, 0 = inactive

Q: Dear all, I need the recorded test outcome for `CN(C)CCNC(=O)c1cc2c3cc(Cl)ccc3[nH]c2c2ncccc12` , thank you.
A: 1

New cases:
Q: Which result was noted for this molecule in the test: Nc1ncnc2c1C(c1ccc(Br)cc1)c1sc3c(F)cccc3c1O2 (stereo not given)
A: 0

Q: Which outcome was assigned to `O=C1Nc2ccc(C(=O)O)cc2/C1=N/c1nnc(Sc2ccccc2)s1` in this test?
A: 0

Q: Assay result, entry `Cc1ccc(Nc2cc(N)nc(N)n2)cc1Cl` — outcome?
A: 0

Q: Lab log entry: Nc1ncnc2c1N=C(c1ccc(Br)cc1)CC(c1cccc(Nc3ccnc4cc(C(F)(F)F)ccc34)c1)N2 (stereo not given) — outcome as called in the assay?
A: 0

---

test system: SF-268 CNS; assay: NCI-60 one-dose screen, 48 h; conditions: 10 µM unless noted
The panel holds about 83,000 compounds, 20% with a hit somewhere; the sample as a whole holds those more often. Active and inactive are the calls of the source. The calls were made as follows: active = growth percent below 10; inactive = the rest.
Bench note: report the call from active, inactive

# example entries with known answers
Q: State the result this test recorded for `C#CCOc1ccc2ncnc(Nc3ccc(NC(=O)C=C)cc3)c2c1` .
A: active

Q: For `CS(=O)(=O)c1ccc(-c2cnn3ccc(-c4cccc(S(=O)(=O)C5CC5)c4)nc23)cc1` , which call appears in the assay record?
A: inactive

Q: Query: recorded result category for `O=c1c2cnn(-c3ccccc3)c2n2c(CN3CCOCC3)nnc2n1-c1ccccc1` in this test
A: inactive

Q: Short answer needed: outcome of this test for `O=C(Nc1nc2cc(C(=O)N3CCN(C(c4ccccc4)c4ccccc4)CC3)ccc2o1)c1ccc(NC2CCCCC2)c([N+](=O)[O-])c1` ?
A: inactive

Q: For this compound, state the assay outcome: `CCN(C)S(=O)(=O)Nc1cccc(Nc2ncnc3cc(NC(=O)CCl)ccc23)c1Cl`
A: active

Further cases:
Q: Dear all, I need the recorded test outcome for `CCN(CC)CCn1c2ccc(O)cc2c2sc3cc(O)ccc3c(=O)c21` , thank you.
A: inactive

Q: I would be grateful if you could indicate the recorded call for CCN1C(=O)N(CC)C2C1NN=c1s/c(=C\c3ccccc3F)c(=O)n12 (centres undefined) .
A: inactive

Q: In this assay, the call recorded for `O=C(c1ccccc1)c1ccc(C2CCCCC2)cc1` was what?
A: inactive

Q: # fetch the recorded call for `COCCOc1cc2ncnc(N3CCN(c4cc(S(C)(=O)=O)c(C)cc4Cl)CC3)c2cc1OCCOC` here
A: inactive
